test system: c-Abl (mouse); assay: phosphorylation enrichment, bacterial display (enrichment ratio); higher = better substrate or ligand; peptides without Tyr show the background
Would you mind labelling by phosphorylation enrichment? At or over 0.8 is yes (1), under is no (0).

DNEYAYLKAII [HNF4A_Y288]
yes (1)
MRAIIYNSSTA [PLEKHA7_Y243_L241I]
yes (1)
QLAPQYTFAQG [FLNA_Y1761_YF]
no (0)
PFTDPYFDFEI [ZC3H18_Y371_A368T_YF]
yes (1)
EEGENYQKGEQ [CHGB_Y173_R178Q]
yes (1)
DCAAIYGNEPD [AKR1A1_Y50_E55D]
yes (1)
TQFWRYFAGNL [SLC25A5_Y112_L111R]
yes (1)
TTPAVYARVAK [CTRB2_Y246]
yes (1)

Could you verify whether the entry VILARYGPAWR [CYP2D6_Y124_F120I] shows phosphorylation enrichment of no less than 0.8?
no (0)

* * *

biological target: FGFR3 (UniProt P22607); test: phosphorylation enrichment, bacterial display (enrichment ratio); higher = better substrate or ligand; peptides without Tyr show the background
Sequence (P22607 whole entry, looked up): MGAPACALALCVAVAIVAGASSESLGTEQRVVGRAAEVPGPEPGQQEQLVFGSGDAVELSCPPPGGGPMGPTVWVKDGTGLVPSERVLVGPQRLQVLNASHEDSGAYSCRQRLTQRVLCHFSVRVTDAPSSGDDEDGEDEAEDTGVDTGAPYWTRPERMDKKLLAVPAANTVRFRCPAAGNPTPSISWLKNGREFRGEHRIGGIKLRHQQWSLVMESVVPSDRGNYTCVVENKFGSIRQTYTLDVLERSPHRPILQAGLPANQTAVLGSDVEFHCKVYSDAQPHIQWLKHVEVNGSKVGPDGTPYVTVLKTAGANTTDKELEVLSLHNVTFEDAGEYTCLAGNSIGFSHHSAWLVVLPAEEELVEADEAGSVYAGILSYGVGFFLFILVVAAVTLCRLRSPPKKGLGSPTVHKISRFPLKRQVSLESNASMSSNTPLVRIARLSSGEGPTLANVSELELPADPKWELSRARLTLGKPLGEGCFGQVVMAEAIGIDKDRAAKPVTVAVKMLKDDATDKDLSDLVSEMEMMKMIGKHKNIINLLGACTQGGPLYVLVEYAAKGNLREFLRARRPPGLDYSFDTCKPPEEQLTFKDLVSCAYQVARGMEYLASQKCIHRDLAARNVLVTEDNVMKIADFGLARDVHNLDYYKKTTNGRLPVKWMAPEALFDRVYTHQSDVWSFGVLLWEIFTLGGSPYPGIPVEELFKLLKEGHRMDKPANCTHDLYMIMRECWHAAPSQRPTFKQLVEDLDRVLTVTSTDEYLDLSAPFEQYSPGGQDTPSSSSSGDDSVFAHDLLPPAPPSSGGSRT
Below, each entry is listed alongside its reported phosphorylation enrichment.
Provide a numeric answer; units are not to be included.

Below are worked cases with known answers.
MFCASYDTKQE [F10_Y407_G406S]
0.746
CPTIHYNYMCN [TP53_Y234_T230P]
0.586
LNCIYYKDQTG [RS1_Y166_W163C]
4.51
QLLIEYPPEEV [ZZZ3_Y670_K669E]
0.833

Consider the sequence shown here: FFVVEYRNQKP [MUC17_Y4332_D4334N_YF] What is its recorded phosphorylation enrichment?
0.98

Please look up its phosphorylation enrichment: KGTAGYTTVAV [RET_Y752_R749T]
0.34

// phosphorylation enrichment lookup, key: ISRLKYPVSQQ [BTK_Y375]
0.399

* * *

molecular target: FGFR1 (UniProt P11362); assay: phosphorylation enrichment, bacterial display (enrichment ratio); higher = better substrate or ligand; peptides without Tyr show the background
Sequence (P11362 whole entry, looked up): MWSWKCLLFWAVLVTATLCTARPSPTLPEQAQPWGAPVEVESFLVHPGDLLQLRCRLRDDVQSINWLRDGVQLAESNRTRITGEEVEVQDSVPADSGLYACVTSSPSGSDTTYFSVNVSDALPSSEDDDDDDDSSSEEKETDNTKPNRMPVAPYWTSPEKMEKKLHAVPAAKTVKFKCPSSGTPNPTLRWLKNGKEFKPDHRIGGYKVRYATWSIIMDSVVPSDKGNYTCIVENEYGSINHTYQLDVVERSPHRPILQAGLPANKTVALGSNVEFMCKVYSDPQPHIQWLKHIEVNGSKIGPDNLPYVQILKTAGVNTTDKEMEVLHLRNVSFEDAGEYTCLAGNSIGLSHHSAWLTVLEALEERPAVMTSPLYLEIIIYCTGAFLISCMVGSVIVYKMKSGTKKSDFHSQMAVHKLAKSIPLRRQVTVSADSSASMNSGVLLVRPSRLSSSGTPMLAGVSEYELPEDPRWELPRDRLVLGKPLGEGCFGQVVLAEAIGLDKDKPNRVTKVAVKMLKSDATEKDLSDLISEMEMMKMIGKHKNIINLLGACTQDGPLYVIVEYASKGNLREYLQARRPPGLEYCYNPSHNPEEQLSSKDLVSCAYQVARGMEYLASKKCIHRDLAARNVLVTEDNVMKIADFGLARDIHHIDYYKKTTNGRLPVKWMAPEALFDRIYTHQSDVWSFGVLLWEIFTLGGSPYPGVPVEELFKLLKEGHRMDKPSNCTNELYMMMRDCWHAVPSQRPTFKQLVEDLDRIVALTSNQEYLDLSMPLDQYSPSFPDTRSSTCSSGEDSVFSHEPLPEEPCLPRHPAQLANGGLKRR
Everything with phosphorylation enrichment lower than 0.6 is criterion not met; everything else, including exactly 0.6, is criterion met.

Worked examples, 5 sequences total:
TSGVVYKARNK [CDK2_Y19_Y15S]
criterion not met
IGERTYGQVFK [CDK13_Y716_G714R_YF]
criterion not met
GRDVIYKGFED [NFU1_Y194_G190R]
criterion not met
GLAELYEFKKK [CKAP5_Y1854_YF]
criterion not met
VLRRVYVDFEG [KMT2B_Y1707]
criterion not met

State whether the measured phosphorylation enrichment reaches 0.6, counting equality as reaching it, for ITNHIYTWVDP [DFNB31_Y234_V229I]
criterion met

Is it the case that RLLVVYPWNQR [HBB_Y36_T39N] has phosphorylation enrichment reaching or exceeding 0.6?
criterion not met

* * *

sequences and their reported SH2 binding enrichment
molecular target: c-Src SH2; assay: SH2 binding enrichment of the phosphorylated peptide, bacterial display (enrichment ratio); higher = better substrate or ligand; peptides without Tyr show the background;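 also: peptide library displayed on the E. coli surface as eCPX fusions, selected cells deep-sequenced, score is each peptide's frequency after selection divided by its frequency in the input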
Form field (numeric): enter value without unit.

Some sequences with recorded SH2 binding enrichment:
IIAVHYVLEES [RYR2_Y4559]
1.09
SFLFHYADDSF [RAB3C_Y50_R49H]
1.55
RVILRYVNPGN [LAMA3_Y791_T796N]
0.944
FVSSFYHAFSG [ACTN4_Y265_YF]
0.95
HDHYGYRQSVT [CD55_Y245_R240H]
0.654
DDSSAYCSVDE [BCKDHA_Y345_R346C]
1.21

May I ask what SH2 binding enrichment has been recorded for LYSGDYYRIQG [DDR2_Y740] ?
0.984

Endpoint output: SH2 binding enrichment of FIIFIYAMKKK [SLCO1B1_Y645_L643F_YF] . Value?
0.758

# lookup: SH2 binding enrichment of YQGGTYSKAST [FGG_Y380]
0.716

For RRNVFYFSFLL [PTEN_Y177_Y174N_YF] , what is its reported SH2 binding enrichment?
0.893

Query: SH2 binding enrichment; subject: TYEPNYGTVKR [RAPGEF6_Y1447_Q1452R]
0.589

What value of measured SH2 binding enrichment is listed for YGGLRCGYGVL [KRTAP20-2_Y13_Y13C] ?
0.569

Which SH2 binding enrichment is listed for KLFFIYTPGTT [SLC27A4_Y245_S247P_YF] ?
0.39

* * *

system: c-Abl (mouse); assay: phosphorylation enrichment, bacterial display (enrichment ratio); higher = better substrate or ligand; peptides without Tyr show the background
Class assignment keyed on phosphorylation enrichment, ranges low: < 0.5; medium: ≥ 0.5 and < 0.8; high: ≥ 0.8

KFDLMYAKHAF [TUBA1A_Y399_R402H]
medium
GRLGEYDIDEV [SMS_Y134_V132G]
high
SWKRRYFLLWA [APBB1IP_Y331_R335W]
low
LGRTRYQHVTG [MIPEP_Y510]
medium

Band assignment needed for NRLTDYFEPLL [BBS10_Y536_YF] please.
medium

// return the class label for HRGCLYLAIEF [TEK_Y899_Y897C_YF]
high

* * *

system: AncSZ; experiment: phosphorylation enrichment, bacterial display (enrichment ratio); higher = better substrate or ligand; peptides without Tyr show the background
Label class 1 for high-side phosphorylation enrichment (at or above 1) and class 0 for low-side phosphorylation enrichment (below it).

Reported phosphorylation enrichment at or above 1? PYSSPYENSLI [EPOR_Y489_N487S]
class 0

Dear colleague, could you confirm whether WASGIYFVPKG [APBB1IP_Y340_R335W_YF] has phosphorylation enrichment at or above 1?
class 1

Kindly determine if phosphorylation enrichment recorded for SVTCTYSPALI [TP53_Y126_N131I] is above or exactly 1.
class 1

Check this sequence for phosphorylation enrichment at or above 1: IRTIDYRYTVC [IDS_Y497_W502C]
class 0

In plain terms: is recorded phosphorylation enrichment at least 1 for NRDNTYNRVSE [FGA_Y127] ?
class 0

Reported phosphorylation enrichment at or above 1? SSTASYFKAPG [RFX2_Y108_E110K]
class 0

Has LYSGDCYRIQG [DDR2_Y740_Y740C] a recorded phosphorylation enrichment greater than or equal to 1?
class 1

* * *

This section presents sequences with their documented phosphorylation enrichment values.
target: Fes (UniProt P07332); assay: phosphorylation enrichment, bacterial display (enrichment ratio); higher = better substrate or ligand; peptides without Tyr show the background
Sequence (P07332 whole entry, looked up): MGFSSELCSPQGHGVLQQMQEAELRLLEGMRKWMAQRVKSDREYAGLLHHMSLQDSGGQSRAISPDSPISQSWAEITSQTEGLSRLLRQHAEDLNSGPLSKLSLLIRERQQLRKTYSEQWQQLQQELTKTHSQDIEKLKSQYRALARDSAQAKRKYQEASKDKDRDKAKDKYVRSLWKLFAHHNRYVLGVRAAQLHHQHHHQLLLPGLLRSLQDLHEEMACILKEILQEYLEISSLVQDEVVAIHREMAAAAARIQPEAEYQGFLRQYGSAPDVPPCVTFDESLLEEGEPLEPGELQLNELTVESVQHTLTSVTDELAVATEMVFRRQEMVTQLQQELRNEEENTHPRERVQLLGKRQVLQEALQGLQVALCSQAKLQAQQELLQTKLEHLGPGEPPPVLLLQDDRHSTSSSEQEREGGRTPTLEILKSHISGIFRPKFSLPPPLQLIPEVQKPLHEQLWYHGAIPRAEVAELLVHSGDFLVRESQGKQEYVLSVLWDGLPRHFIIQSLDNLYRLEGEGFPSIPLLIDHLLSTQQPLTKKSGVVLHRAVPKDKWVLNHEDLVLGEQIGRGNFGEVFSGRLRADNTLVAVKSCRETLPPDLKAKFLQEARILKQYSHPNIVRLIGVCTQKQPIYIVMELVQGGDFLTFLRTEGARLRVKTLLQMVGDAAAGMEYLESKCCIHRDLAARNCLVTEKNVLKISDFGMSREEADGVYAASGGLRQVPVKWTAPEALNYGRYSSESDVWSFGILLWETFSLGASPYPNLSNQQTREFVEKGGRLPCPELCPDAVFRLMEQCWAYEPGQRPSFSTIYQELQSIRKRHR

DPHKIFEFVNS [IRF3_Y107_Y107F]
0.88
IHHIDYYKETT [FGFR1_Y653_K656E]
1.05
PLDEEYFTLQI [TP53_Y327_G325E]
2.25
RQQEVYLLFKQ [RARRES1_Y159_D158V_YF]
1.48
YYSSEYHCVGG [CTSC_Y345_Y347C]
1.04

// lookup phosphorylation enrichment for RLLVVYPWNQR [HBB_Y36_T39N]
1.4

Which phosphorylation enrichment is reported for this sequence? PTYEHYANSTQ [SLC12A3_Y70]
1.2

What value of phosphorylation enrichment has been reported for the following sequence? VVLVSYVPSSQ [SH2B1_Y624]
0.874

May I ask what phosphorylation enrichment has been recorded for SHNKYYMLVAH [MFSD8_Y134_R139H] ?
0.757

Recorded phosphorylation enrichment for MPIPMYDASQA [CARMIL1_Y637] , please?
0.73

Would you mind telling me what phosphorylation enrichment value was observed for INSLKYAFNVS [EIF2B5_Y583_I587V_YF] ?
0.85

Quick one: phosphorylation enrichment of LYEDHYLLGTS [ASS1_Y87_R86H] ?
1.37

Form field: reported phosphorylation enrichment of SFLFHYADDSF [RAB3C_Y50_R49H]
1.12

Quick check: phosphorylation enrichment of PIDLYYLMDLS [ITGB2_Y131] ?
4.2

Can you look up the measured phosphorylation enrichment of SNKLFYQLEQE [PDPR_Y110_YF] for me?
1.39

* * *

biological target: Hck (UniProt P08631); experiment: phosphorylation enrichment, bacterial display (enrichment ratio); higher = better substrate or ligand; peptides without Tyr show the background
Sequence (P08631 whole entry, looked up): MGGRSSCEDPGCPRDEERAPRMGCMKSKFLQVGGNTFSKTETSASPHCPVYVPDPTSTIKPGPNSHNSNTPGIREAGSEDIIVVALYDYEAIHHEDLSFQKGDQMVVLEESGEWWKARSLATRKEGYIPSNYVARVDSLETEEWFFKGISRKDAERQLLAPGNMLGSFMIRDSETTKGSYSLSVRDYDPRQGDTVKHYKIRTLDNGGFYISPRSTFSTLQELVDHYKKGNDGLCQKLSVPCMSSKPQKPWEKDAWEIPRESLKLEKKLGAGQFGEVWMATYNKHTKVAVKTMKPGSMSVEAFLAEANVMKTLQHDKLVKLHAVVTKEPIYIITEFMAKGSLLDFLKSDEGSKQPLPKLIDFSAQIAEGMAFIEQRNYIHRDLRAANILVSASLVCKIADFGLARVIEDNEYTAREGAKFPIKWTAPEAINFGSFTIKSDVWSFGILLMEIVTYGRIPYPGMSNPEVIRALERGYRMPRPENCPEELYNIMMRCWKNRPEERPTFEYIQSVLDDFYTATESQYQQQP
Please use satisfied whenever phosphorylation enrichment is not below 0.6, and not satisfied whenever it is.

CDIPRYIVSQL [MAST2_Y461]
not satisfied
QWLEQYTQAIE [LSP1_Y234]
satisfied
KFGTNYRVGSS [CPO_Y278_YF]
not satisfied
TARWEYMHSPS [CPOX_Y429]
not satisfied
VKKNRYKDILP [PTPN12_Y64]
not satisfied

Please check the record TSGVVYKARNK [CDK2_Y19_Y15S] and state if its phosphorylation enrichment is at or above 0.6.
not satisfied

Check this sequence for phosphorylation enrichment at or above 0.6: YGEYRYRSVIK [CFTR_Y517_D513G]
satisfied

Could you please find out whether TSNQEYLDVSM [FGFR1_Y766_L769V] has phosphorylation enrichment that meets 0.6 or exceeds it?
not satisfied

Does IGERTYGQVFK [CDK13_Y716_G714R_YF] have a reported phosphorylation enrichment of at least 0.6?
satisfied

Reported phosphorylation enrichment at or above 0.6? GSERDYTYDEL [EIF2S2_Y174_E177D]
satisfied

Tell me whether phosphorylation enrichment is at least 0.6 here: VGTKRYMAPEV [ACVRL1_Y375]
not satisfied

Is phosphorylation enrichment for LRAGVYPEKDQ [DNM2_Y626] at or above 0.6?
satisfied

Would you say LSIWPYLQKID [MFSD8_Y63_M58L] shows phosphorylation enrichment at minimum 0.6?
not satisfied

Is the recorded value of phosphorylation enrichment equal to or greater than 0.6 for this sequence? GKVADYIPQLP [GLS_Y249_A254P]
not satisfied
